Reference source for all entries: ChEMBL document CHEMBL4261527

Test: Cytotoxicity against African green monkey Vero cells assessed as cell viability at 0.039 ug/ml after 72 hrs by CCK8 assay (reference value: 100%)
Format: cell-based
Details: chlorocebus sabaeus, read-out: Activity
PROPERTY_LABEL: viability at 72 h, 0.039 ug/ml (%)
Please reply with the bare figure in % and do not write the unit itself.

1. O=C(N/N=C/c1ccc(CSc2nc3ccccc3[nH]2)cc1)c1ccncc1 : 115
2. O=C(N/N=C/c1ccc(CSc2nc3ccccc3s2)cc1)c1ccncc1 : 99

Task: For `O=C(N/N=C/c1ccc(CSc2nc3ccccc3o2)cc1)c1ccncc1` , what is its reported viability at 72 h, 0.039 ug/ml?
Output: 127
